- assay.comment: blood appearance and urinary excretion
- Assay type: in vivo, mice
- condition.notes: mouse, urine, sc, within four hours after administration; read-out: eliminated/recovered in the urine
quantity.kind: dose excreted at 4 h

get_value(item= CO[C@@]1(NC(=O)CCC[C@@H](N)C(=O)O)C(=O)N2C(C(=O)O)=C(COC(N)=O)CS[C@@H]21 [Example 842A] , readout=dose excreted at 4 h) returns ~79%

Reference source for all entries: patent US3985742A
